Biological target: T1, GST-hUHRF1-TTD (126-280) E153A (human, UniProt Q96T88 126-280, E153A)
T1 construct: Tandem Tudor domain (TTD) of human UHRF1, UniProt Q96T88, residues 126-280; also called E153A TTD mutant; source: E. coli, purified (Glutathione Agarose 4B); not shown: GST, N-terminal, kept
T1 sequence (looked up): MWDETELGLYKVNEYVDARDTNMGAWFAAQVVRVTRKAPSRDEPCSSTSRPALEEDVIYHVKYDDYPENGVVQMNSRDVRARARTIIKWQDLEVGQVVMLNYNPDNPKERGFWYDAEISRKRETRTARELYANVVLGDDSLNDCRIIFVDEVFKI
Experiment: fluorescence polarisation; fluorescence anisotropy titration; 100 nM FITC-labeled peptide in the cuvette, protein added stepwise; 23°C; 100 mM KCl, 20 mM HEPES pH 7.5, 10% v/v glycerol
Conditions: both partners purified
No end group written: not given here. Me3 = trimethyl (trimethyl-lysine)
ATTRIBUTE_MEASURED: Kd (nM)
Numbers only, in nM.

## Input Which value of Kd has been reported for ARTK(Me)QTARK(Me3)STGGKAPRKQ (peptide, UniProt P68431 2-20, looked up, also: FITC-labeled (position not given here), histone H3 N-terminal tail, residues 1-19; also called H3K4me1-K9me3; H3 K4me1-K9me3) [FITC-labeled H3(1-19) peptide with K4me1 and K9me3] in the records?
## Output 2

Taken from paper PMC10464304.
